logP values, listed per item
measurement.name: logP

- given.smiles: "CN(Cc1ccc(Cl)cc1)N=O"
  value.reported: 2.19
- given.smiles: "COc1cccc(CN(C)N=O)c1"
  value.reported: 1.6
- given.smiles: "Cc1cccc(CN(C)N=O)c1"
  value.reported: 1.96
- given.smiles: "CN(Cc1ccccc1)N=O"
  value.reported: 1.55
- given.smiles: "CN(Cc1cccc(C(F)(F)F)c1)N=O"
  value.reported: 1.99
- given.smiles: "CN(Cc1ccc([N+](=O)[O-])cc1)N=O"
  value.reported: 0.82
- given.smiles: "CN(Cc1cccc([N+](=O)[O-])c1)N=O"
  value.reported: 1.17
- given.smiles: "Cc1ccc(CN(C)N=O)cc1"
  value.reported: 2.14
- given.smiles: "CN(Cc1ccc(F)cc1)N=O"
  value.reported: 1.67
- given.smiles: "CN(Cc1cccc(Cl)c1)N=O"
  value.reported: 1.46

Source listed as the OPERA property sets (Mansouri et al. 2018).
